Entry source: ChEMBL document CHEMBL3433997

# ASSAYED TARGET: Solute carrier family 2, facilitated glucose transporter member 1 (Homo sapiens)
# METHOD: ST_JUDE_LEISH: Cytotoxicity at 2uM final concentration against transgenic Leishmania Mexicana promastigotes LmGLUT1 that are glucose transport deficient and complemented with the human glucose transporter GLUT1. Activity is measured by DNA content using SYBR green in vitro
# Format: functional
Please mark 1 if the recorded inhibition is equal to or greater than 4%, and -1 if it falls below.

COMPOUND: Cc1nnsc1C(=O)Nc1ccc(-c2cccc(-c3nc4cccc(C)c4[nH]3)c2)cc1
QUALITATIVE LABEL: -1
--
COMPOUND: CC[C@H](C)CNC(=O)c1ccc(-c2cccc(CN3CCC(N4CCCC4)CC3)c2)nc1
QUALITATIVE LABEL: -1
--
COMPOUND: O=c1cc(NCCNCc2cccc(-c3ccccc3)c2)[nH]c2ccccc12
QUALITATIVE LABEL: 1
--
COMPOUND: CCc1ccc(CN(CCCOc2cccc(CC(=O)NCc3c[nH]cn3)c2)Cc2ccc(-n3ccnc3)cc2)cc1
QUALITATIVE LABEL: -1
--
COMPOUND: CC(C)(CNCc1cccc(Oc2cccc(C(F)(F)F)c2)c1)c1nc(-c2ccnc(N)n2)c(-c2ccc(Cl)c(O)c2)[nH]1
QUALITATIVE LABEL: 1
--
COMPOUND: CCCCCCCC(=O)N[C@@H](Cc1ccccc1)C(=O)N[C@H](C(=O)O)C(C)C
QUALITATIVE LABEL: -1
--
COMPOUND: N#Cc1ccc2c(c1)CCN(CCC1CCC(NC(=O)/C=C/c3c[nH]c4ccc(F)cc34)CC1)CC2 (stereo not drawn)
QUALITATIVE LABEL: -1

Next, consider the following compound.
Exam item: Would you say `CCN(CC)CCN(Cc1ccc(-c2ccc(C(F)(F)F)cc2)cc1)C(=O)Cn1c(CCc2ccc(F)c(F)c2F)nc(=O)c2ccccc21` shows inhibition at minimum 4%?
Marked response: 1
